MEASURED TARGET: KRas wild type (Homo sapiens (Human), UniProt P01116)
Sequence (P01116-2 other isoform, or with tags, fused parts or gaps): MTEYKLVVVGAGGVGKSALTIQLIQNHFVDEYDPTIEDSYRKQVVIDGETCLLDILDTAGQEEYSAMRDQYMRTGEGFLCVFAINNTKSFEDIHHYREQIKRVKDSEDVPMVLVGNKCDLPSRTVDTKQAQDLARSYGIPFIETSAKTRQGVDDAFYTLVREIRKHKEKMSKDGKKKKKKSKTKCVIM
PROTOCOL SUMMARY: Ras GTP binding domain inhibition assay (labeled GTP)
STUDY CONDITIONS: 20 μM compound; read-out: % Inhibition at 20 μM KRas wild type
Below, each of the molecules is paired with its reported inhibition at 20 µM value.

MOLECULE	inhibition at 20 µM
COc1cccc(C2CN(C(=O)c3csc4c(O)nc(-c5ccccn5)nc34)CCN2)c1 (stereo not shown) [drawing 2773]	25 to 50%
COCc1ccc(-c2csc3c(O)nc(-c4ccccn4)nc23)cc1F [drawing 2846]	25 to 50%
CC1CN(c2ccccc2)CCN1C(=O)c1csc2c(O)nc(-c3ccccn3)nc12 (stereo not shown) [drawing 2761]	25 to 50%
O=C(c1csc2c(O)nc(-c3ccccn3)nc12)N1CCNC(c2cn[nH]c2)C1 (stereo not shown) [drawing 2858]	25 to 50%
Oc1nc(-c2ccccn2)nc2c(-c3ccc(F)cc3F)csc12 [drawing 2871]	25 to 50%
O=C(c1csc2c(O)nc(-c3ccccn3)nc12)N1CCNC(c2ccc(O)cc2)C1 (stereo not shown) [drawing 2808]	76 to 100%
O=C(c1csc2c(O)nc(-c3ccccn3)nc12)N1CC2CC1CN2c1ccccc1 (stereo not shown) [drawing 2838]	25 to 50%
O=S1(=O)CCN(Cc2cccc(-c3csc4c(O)nc(-c5ccccn5)nc34)c2)CC1 [drawing 2864]	51 to 75%
Oc1nc(-c2ccccn2)nc2c(-c3cc(Cl)cc(Cl)c3)csc12 [drawing 2848]	1 to 25%
O=C(c1csc2c(O)nc(-c3ccccn3)nc12)N1CCC(c2ccncc2)C1 (stereo not shown) [drawing 2839]	51 to 75%
O=C(c1csc2c(O)nc(-c3ccccn3)nc12)N1CCC(c2cccnc2)CC1 [drawing 2682]	76 to 100%
Oc1nc(-c2ccccn2)nc2c1ncn2-c1ccccc1 [drawing 2697]	51 to 75%
Oc1nc(-c2ccccn2)nc2c(-c3cc(F)ccc3OC(F)F)csc12 [drawing 2860]	1 to 25%
O=C(c1cc2nc(-c3ccccn3)nc(O)c2s1)N1CCN(c2ccccc2)CC1 [drawing 2841]	51 to 75%
O=C(COCc1ccncc1)Nc1nc(-c2ccccn2)nc2sccc12 [drawing 2828]	25 to 50%
O=C(NCCc1cccnc1)c1csc2c(O)nc(-c3ccccn3)nc12 [drawing 2689]	76 to 100%
COc1ccnc(-c2nc(O)c3c(Cl)csc3n2)c1 [drawing 2800]	51 to 75%
CC(C)(O)c1ccc(-c2csc3c(O)nc(-c4ccccn4)nc23)c(F)c1 [drawing 2880]	51 to 75%
Oc1nc(-c2ccccn2)nc2c(-c3cccc(C(F)(F)F)c3)csc12 [drawing 2873]	25 to 50%
Oc1nc(-c2ccccn2)nc2c(-c3ccccc3F)csc12 [drawing 2868]	51 to 75%
CC1(N)CCN(C(=O)c2csc3c(O)nc(-c4ccccn4)nc23)CC1 [drawing 2684]	25 to 50%
Oc1nc(-c2ccccn2)nc2c(-c3ccc4c(c3)OCO4)csc12 [drawing 2879]	51 to 75%
Oc1nc(-c2ccccn2)nc2c(-c3ccsc3)csc12 [drawing 2875]	1 to 25%
COc1ccccc1-c1csc2c(O)nc(-c3ccccn3)nc12 [drawing 2870]	25 to 50%
COc1ccnc(-c2nc(O)c3ccsc3n2)c1 [drawing 2708]	25 to 50%

* * *

MEASURED TARGET: KRas Q61H mutant (Homo sapiens (Human), UniProt P01116, Q61H)
Sequence (P01116-2 other isoform, or with tags, fused parts or gaps Q61H): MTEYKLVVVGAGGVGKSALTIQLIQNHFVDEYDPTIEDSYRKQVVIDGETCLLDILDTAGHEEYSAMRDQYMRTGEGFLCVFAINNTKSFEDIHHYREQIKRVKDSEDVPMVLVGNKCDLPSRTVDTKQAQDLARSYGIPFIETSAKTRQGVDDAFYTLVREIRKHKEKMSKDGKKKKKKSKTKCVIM
PROTOCOL SUMMARY: Ras GTP binding domain inhibition assay (labeled GTP)
STUDY CONDITIONS: 20 μM compound; read-out: % Inhibition at 20 μM KRas Q61H

MOLECULE	inhibition at 20 µM
O=C(NCCc1ccc(O)c(O)c1)c1csc2nc(-c3ccccn3)nc(N3CCOCC3)c12 [drawing 2785]	1 to 25%
Oc1nc(-c2ccccn2)nc2c(-c3ccc(CN4CCOCC4)cc3)csc12 [drawing 2882]	25 to 50%
O=C(c1csc2c(O)nc(-c3ccccn3)nc12)N1CCNC(c2ccc(O)cc2)C1 (stereo not drawn) [drawing 2808]	76 to 100%
Nc1nc(-c2ccccn2)nc2scc(Br)c12 [drawing 2894]	51 to 75%
O=C(c1csc2c(O)nc(-c3ccccn3)nc12)N1CCN(Cc2ccc(O)cc2)CC1 [drawing 2764]	25 to 50%
O=C(c1csc2c(O)nc(-c3ccccn3)nc12)N1CCNC(c2cn[nH]c2)C1 (stereo not drawn) [drawing 2858]	76 to 100%
COCCN(CCOC)c1nc(-c2ccccn2)nc2scc(C(=O)NCCc3ccc(OC)nc3)c12 [drawing 2792]	25 to 50%
COc1ccc(CCN(C)C(=O)c2csc3nc(-c4ccccn4)nc(N4CCOCC4)c23)cn1 [drawing 2746]	25 to 50%
Oc1nc(-c2ccccn2)nc2c(-c3cccc(C(F)(F)F)c3)csc12 [drawing 2873]	51 to 75%
COc1ccccc1C1CN(C(=O)c2csc3c(O)nc(-c4ccccn4)nc23)CCO1 (stereo not drawn) [drawing 2767]	76 to 100%
Oc1nc(-c2ccccn2)nc2c(-c3cc(F)ccc3OC(F)F)csc12 [drawing 2860]	51 to 75%
Oc1nc(-c2ccccn2)nc2c(-c3ccc(OC4CCCC4)cc3)csc12 [drawing 2863]	25 to 50%
COc1ccc(-c2csc3c(O)nc(-c4ccccn4)nc23)c(C)c1 [drawing 2881]	51 to 75%
O=C(COCc1ccnc(O)c1)Nc1nc(-c2ccccn2)nc2sccc12 [drawing 2857]	51 to 75%
Cc1sc2c(N)nc(-c3ccccn3)nc2c1Br [drawing 2893]	1 to 25%

* * *

System: IL6 production in RAW 264.7 macrophage cell line
PROTOCOL SUMMARY: Mouse IL6 quantification assay (LPS-stimulated macrophages, ELISA)
Type: cell-based
STUDY CONDITIONS: RAW264.7, RAW 264.7 murine leukemia virus transformed macrophage cell lines, LPS stimulation, read-out: IL-6 % Inhibition at 30 μM
Below, each of the compounds is paired with its reported inhibition at 30 µM value.
ASSAY ENDPOINT: inhibition at 30 µM

COMPOUND	MEASUREMENT
O=C(c1ccc2ccccc2n1)N1CCCc2c(O)nc(-c3ccccn3)nc21 [drawing 2075]	76 to 100%
CC1(N)CCN(C(=O)c2csc3c(O)nc(-c4ccccn4)nc23)CC1 [drawing 2111]	1 to 25%
COc1cccc(CC(=O)Nc2nnc(-c3ccccn3)[nH]2)c1 [drawing 1933]	26 to 50%
COC(=O)c1cccc(CN2CCC(CSc3ccccc3)C2)c1C#N (stereo not shown) [drawing 2046]	26 to 50%

* * *

MEASURED TARGET: KRas G12C mutant (Homo sapiens (Human), UniProt P01116, G12C)
Sequence (P01116-2 other isoform, or with tags, fused parts or gaps G12C): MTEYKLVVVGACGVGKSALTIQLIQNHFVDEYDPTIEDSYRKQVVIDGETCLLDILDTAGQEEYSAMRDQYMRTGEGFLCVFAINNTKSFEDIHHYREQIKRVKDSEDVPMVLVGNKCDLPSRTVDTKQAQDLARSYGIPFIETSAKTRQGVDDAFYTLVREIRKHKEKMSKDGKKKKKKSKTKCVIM
PROTOCOL SUMMARY: Ras GTP binding domain inhibition assay (labeled GTP)
STUDY CONDITIONS: 20 μM compound; KRas G12C; read-out: % Inhibition at 20 μM of K-Ras mutant and wild-type protein, KRas G12C
ASSAY ENDPOINT: inhibition at 20 µM

MOLECULE	MEASUREMENT
Cn1ccnc1-c1nc(O)c2sc(-c3ccccc3)c(-c3ccccc3Cl)c2n1 [drawing 3595]	51 to 75%
COc1cnc(-c2nccn2C)nc1O [drawing 3513]	51 to 75%
Cn1ccnc1-c1nc(O)c2scc(-c3cccc(C(F)(F)F)c3)c2n1 [drawing 3598]	1 to 25%
COCCNc1nc(-c2cn(C)cn2)nc2sc(-c3ccncc3)c(-c3ccccc3)c12 [drawing 3530]	51 to 75%
COCCNc1nc(-c2cccc(N)n2)nc2sc(-c3ccccc3)c(-c3ccccc3)c12 [drawing 3591]	1 to 25%
Oc1nc(-c2ccccn2)nc2c(C3CCCC3)csc12 [drawing 3495]	25 to 50%

* * *

MEASURED TARGET: KRas G12D mutant protein (Homo sapiens (Human), UniProt P01116, G12D)
Sequence (P01116-2 other isoform, or with tags, fused parts or gaps G12D): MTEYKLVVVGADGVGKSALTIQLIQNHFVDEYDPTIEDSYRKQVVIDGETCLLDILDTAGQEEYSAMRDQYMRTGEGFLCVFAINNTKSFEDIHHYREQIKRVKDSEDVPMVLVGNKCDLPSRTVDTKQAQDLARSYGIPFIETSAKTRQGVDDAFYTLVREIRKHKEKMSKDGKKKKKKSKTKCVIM
PROTOCOL SUMMARY: Ras GTP binding domain inhibition assay (labeled GTP)
STUDY CONDITIONS: 20 μM compound; KRas G12D; read-out: % Inhibition at 20 μM of K-Ras mutant and wild-type protein, KRas G12D
Below, each of the compounds is paired with its reported inhibition at 20 µM value.
ASSAY ENDPOINT: inhibition at 20 µM

COMPOUND	MEASURED TARGET	MEASUREMENT
COCCNc1nc(-c2nccn2C)nc2sc(-c3ccccc3)c(-c3ccc(OC)cc3)c12 [drawing 3589]	KRas G12D mutant protein (Homo sapiens (Human), UniProt P01116, G12D)	25 to 50%
Cc1sc2c(O)nc(-c3ccccn3)nc2c1-c1cccnc1 [drawing 3468]	KRas G12D mutant protein (Homo sapiens (Human), UniProt P01116, G12D)	51 to 75%
Cn1ccnc1-c1nc(O)c2scc(-c3cccc(C(F)(F)F)c3)c2n1 [drawing 3598]	KRas G12D mutant protein (Homo sapiens (Human), UniProt P01116, G12D)	25 to 50%
Cc1sc2c(O)nc(-c3ccccn3)nc2c1C(=O)N1CCN(Cc2cccc(O)c2)CC1 [drawing 3510]	KRas G12D mutant protein (Homo sapiens (Human), UniProt P01116, G12D)	25 to 50%
COCCNc1nc(-c2nccn2C)nc2sc(C)c(-c3ccccc3)c12 [drawing 3584]	KRas G12D mutant protein (Homo sapiens (Human), UniProt P01116, G12D)	51 to 75%
Oc1nc(-c2ccccn2)nc2c(CC3CCNC3)csc12 (centres unmarked) [drawing 3526]	KRas G12D mutant protein (Homo sapiens (Human), UniProt P01116, G12D)	51 to 75%
COc1cnc(-c2cn(C)cn2)nc1O [drawing 3496]	KRas G12D mutant protein (Homo sapiens (Human), UniProt P01116, G12D)	51 to 75%
CCC(C)c1csc2c(OC)nc(-c3ccccn3)nc12 (centres unmarked) [drawing 3471]	KRas G12D mutant protein (Homo sapiens (Human), UniProt P01116, G12D)	25 to 50%

Sourced from patent US10940139B2
